- TARGET OR TEST SYSTEM: IMPDH
- EXPERIMENT DESCRIPTION: IMPDH enzyme assay (NADH release at 340 nm)
- MEASUREMENT CONDITIONS: 0.2 mM IMP, 0.4 mM NAD, 37° C.
EXPERIMENTAL READOUT: IC50

Note down IC50 recorded for COc1cc(NC(=O)Nc2ccc(S(=O)(=O)N3CCOCC3)cc2)ccc1C#N < 5 µM
